Sourced from PubChem BioAssay

assay: small-molecule binders of probe aNOTCH3, primary screen, biochemical, small-molecule microarray, 635/667 nm fluorescence (AID 1120); conditions: higher = more signal;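 note: probe is a biotin-tagged antibody raised against NOTCH3 rather than NOTCH3 protein; score merges spot fluorescence near 667 nm with spot signal to noise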
Decision: composite z-score compared against 0.06; not below it gives true, below it gives false.

>  <Molecule>
Cc1ccccc1C(O)C1C=CC2C(=O)N(c3ccccc3)C(=O)C2N1Nc1ccccc1F (stereo not given)

>  <Label value>
true

$$$$
>  <Molecule>
CCCCCCCCCCC(O)C1C=CC2C(=O)N(C)C(=O)C2N1N1CCCCC1 (stereo not given)

>  <Label value>
false

$$$$
>  <Molecule>
CCCCN1CC=CC23O[C@@H]4/C=C\CCC(C)OC(=O)C4[C@H]2C(=O)N(C(C)CO)[C@@H]3C1=O (stereo not given in full)

>  <Label value>
false

$$$$

Note: attention shifts to another entry.
Prompt: Entry COc1ccc([Si](C)(C)[C@@H]2[C@@H](CC(=O)N(CCO)Cc3ccccc3)O[C@]3(C(=O)N(Cc4ccc(N5CCC5=O)cc4)c4ccccc43)[C@H]2C)cc1 : is its composite z-score no less than 0.06?
Completion: false
